target_under_test: human TAS2R1 (Homo sapiens)
Construct: expressed in transfected cells; host or cells: HEK293T-Gα16gust44
Sequence (Q9NYW7 1-299): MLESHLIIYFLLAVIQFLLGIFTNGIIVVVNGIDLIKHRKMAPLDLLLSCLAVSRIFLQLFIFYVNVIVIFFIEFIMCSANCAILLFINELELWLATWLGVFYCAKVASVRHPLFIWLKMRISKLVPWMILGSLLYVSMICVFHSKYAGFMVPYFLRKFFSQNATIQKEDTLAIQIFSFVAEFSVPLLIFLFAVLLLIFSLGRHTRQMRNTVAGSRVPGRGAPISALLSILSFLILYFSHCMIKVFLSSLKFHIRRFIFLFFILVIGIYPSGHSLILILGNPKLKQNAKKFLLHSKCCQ
protocol_description: Calcium imaging assay (FLIPR), HEK293T-Gα16gust44 cells transfected with human TAS2R1
Type: cell-based
measurement_conditions: Time 70.781 s
readout_type: RLU (RLU)
Write the number in RLU without appending the unit.

The examples below pair each entry with its known result.
entry_smiles: C[C@H](CCC(=O)O)[C@H]1CC[C@H]2[C@@H]3CC[C@@H]4C[C@H](O)CC[C@]4(C)[C@H]3C[C@H](O)[C@]12C
uom: RLU
RLU: 404.287
--
entry_smiles: C[C@H](CCC(=O)NCCS(=O)(=O)O)[C@H]1CC[C@H]2[C@@H]3[C@H](O)C[C@@H]4C[C@H](O)CC[C@]4(C)[C@H]3C[C@H](O)[C@]12C
uom: RLU
RLU: 400.242
--
entry_smiles: C[C@H](CCC(=O)NCC(=O)O)[C@H]1CC[C@H]2[C@@H]3[C@H](O)C[C@@H]4C[C@H](O)CC[C@]4(C)[C@H]3C[C@H](O)[C@]12C
uom: RLU
RLU: 609.358

Query: Note down RLU recorded for C[C@H](CCC(=O)NCCS(=O)(=O)O)[C@H]1CC[C@H]2[C@@H]3CC[C@@H]4C[C@H](O)CC[C@]4(C)[C@H]3CC[C@]12C
Response: 740.519

###

target_under_test: human TAS2R4 (Homo sapiens, UniProt Q9NYW5)
Construct: expressed in transfected cells; host or cells: HEK293T-Gα16gust44
Sequence (Q9NYW5 whole entry): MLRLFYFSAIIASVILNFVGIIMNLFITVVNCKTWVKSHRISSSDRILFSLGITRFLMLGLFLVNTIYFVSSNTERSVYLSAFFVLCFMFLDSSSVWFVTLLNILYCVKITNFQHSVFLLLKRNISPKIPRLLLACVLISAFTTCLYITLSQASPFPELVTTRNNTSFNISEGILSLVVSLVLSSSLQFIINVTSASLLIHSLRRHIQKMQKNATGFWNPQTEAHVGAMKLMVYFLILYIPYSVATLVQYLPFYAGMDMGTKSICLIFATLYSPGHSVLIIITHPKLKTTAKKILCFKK
protocol_description: Calcium imaging assay (FLIPR), HEK293T-Gα16gust44 cells transfected with human TAS2R4; also: test concentration or dose not given here
Assay type: cell-based
measurement_conditions: Time (s) 116.781 (TCA, TLCA: 116.782)
Entries and their RLU, fluorescence trace values follow.
Write the number in RLU without appending the unit.

The examples below pair each entry with its known result.
entry_smiles: C[C@H](CCC(=O)O)[C@H]1CC[C@H]2[C@@H]3CC[C@@H]4C[C@H](O)CC[C@]4(C)[C@H]3C[C@H](O)[C@]12C
RLU, fluorescence trace [RLU]: 340.242
//
entry_smiles: C[C@H](CCC(=O)O)[C@H]1CC[C@H]2[C@@H]3[C@H](O)C[C@@H]4C[C@H](O)CC[C@]4(C)[C@H]3C[C@H](O)[C@]12C
RLU, fluorescence trace [RLU]: 514.781
//
entry_smiles: C[C@H](CCC(=O)NCCS(=O)(=O)O)[C@H]1CC[C@H]2[C@@H]3[C@H](O)C[C@@H]4C[C@H](O)CC[C@]4(C)[C@H]3C[C@H](O)[C@]12C
RLU, fluorescence trace [RLU]: 616.307
//
entry_smiles: C[C@H](CCC(=O)O)[C@H]1CC[C@H]2[C@@H]3[C@@H](O)C[C@@H]4C[C@H](O)CC[C@]4(C)[C@H]3CC[C@]12C
RLU, fluorescence trace [RLU]: 251.234
//
entry_smiles: C[C@H](CCC(=O)NCCS(=O)(=O)O)[C@H]1CC[C@H]2[C@@H]3CC[C@@H]4C[C@H](O)CC[C@]4(C)[C@H]3CC[C@]12C
RLU, fluorescence trace [RLU]: 268.998

From here, focus on the item given below.
Query: Note down RLU, fluorescence trace recorded for C[C@H](CCC(=O)NCC(=O)O)[C@H]1CC[C@H]2[C@@H]3[C@H](O)C[C@@H]4C[C@H](O)CC[C@]4(C)[C@H]3C[C@H](O)[C@]12C
Response: 588.773
